system: 889142-216-R-J1-PDC complex spheroid viability; experiment: Anticancer human tumor 889142-216-R-J1-PDC patient-derived bladder carcinoma cell line growth inhibition [POLQ]; conditions: second compound 3.16 µM; first compound 0.1 µM; hits give low values;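 further: spheroids exposed to compounds for seven days; 100% = DMSO vehicle control viability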
readout.type: viability, T/C (%)

INSERT INTO assay_data (compound, endpoint_unit, readout_number) VALUES
  ('CCCS(=O)(=O)Nc1ccc(F)c(C(=O)c2c[nH]c3ncc(-c4ccc(Cl)cc4)cc23)c1F + Cc1cccc(N(C)C(=O)C2C(O)CCN2c2nc(C)cc(C(F)(F)F)c2C#N)c1', '%', 96),
  ('CCc1cc2c(N3CCc4c(cc(Cn5ccnc5)cc4-c4cn(C)nc4C(F)(F)F)C3=O)ccnc2c(OC)n1 + COC1C(OC(N)=O)C(O)C(Oc2ccc3c(O)c(NC(=O)c4ccc(O)c(CC=C(C)C)c4)c(=O)oc3c2C)OC1(C)C', '%', 106),
  ('Nc1ccn(C2OC(CO)C(O)C2(F)F)c(=O)n1 (stereo not given) + COC1C(OC(N)=O)C(O)C(Oc2ccc3c(O)c(NC(=O)c4ccc(O)c(CC=C(C)C)c4)c(=O)oc3c2C)OC1(C)C', '%', 52.4),
  ('CC(C)n1c(=O)n(C)c2cnc3cc(F)c(-c4ccc(OCCCN5CCCCC5)nc4)cc3c21 + Nc1ccc(C#CCN(C(=O)Cc2ncc(C(F)(F)F)cc2C(F)(F)F)c2ccc(F)cc2)nn1', '%', 72.8),
  ('CC1COCCN1c1cc(C2(S(C)(=N)=O)CC2)nc(-c2ccnc3[nH]ccc23)n1 (stereo not given) + COC1C(OC(N)=O)C(O)C(Oc2ccc3c(O)c(NC(=O)c4ccc(O)c(CC=C(C)C)c4)c(=O)oc3c2C)OC1(C)C', '%', 98),
  ('CCc1cc2c(N3CCc4c(cc(Cn5ccnc5)cc4-c4cn(C)nc4C(F)(F)F)C3=O)cc(C)nc2c(OC)n1 + Cc1cccc(N(C)C(=O)C2C(O)CCN2c2nc(C)cc(C(F)(F)F)c2C#N)c1', '%', 121),
  ('C=CC(=O)N1CCN(c2nc(=O)n(-c3c(C)ccnc3C(C)C)c3nc(-c4c(O)cccc4F)c(F)cc23)C(C)C1 (stereo not given) + Nc1ccc(C#CCN(C(=O)Cc2ncc(C(F)(F)F)cc2C(F)(F)F)c2ccc(F)cc2)nn1', '%', 88.3),
  ('C=CCn1c(=O)c2cnc(Nc3ccc(N4CCN(C)CC4)cc3)nc2n1-c1cccc(C(C)(C)O)n1 + COC1C(OC(N)=O)C(O)C(Oc2ccc3c(O)c(NC(=O)c4ccc(O)c(CC=C(C)C)c4)c(=O)oc3c2C)OC1(C)C', '%', 108),
  ('COc1cc2cc(C(=O)CCC(=O)O)sc2cc1OC + COC1C(OC(N)=O)C(O)C(Oc2ccc3c(O)c(NC(=O)c4ccc(O)c(CC=C(C)C)c4)c(=O)oc3c2C)OC1(C)C', '%', 113),
  ('CC1COCCN1c1cc(C2(O)CC3CCC(C2)O3)c2cnn(-c3ccn[nH]3)c2n1 (stereo not given) + Cc1cccc(N(C)C(=O)C2C(O)CCN2c2nc(C)cc(C(F)(F)F)c2C#N)c1', '%', 47.9),
  ('COc1cc(C2c3cc4c(cc3C(OC3OC5COC(C)OC5C(O)C3O)C3COC(=O)C23)OCO4)cc(OC)c1O (stereo not given) + COC1C(OC(N)=O)C(O)C(Oc2ccc3c(O)c(NC(=O)c4ccc(O)c(CC=C(C)C)c4)c(=O)oc3c2C)OC1(C)C', '%', 96.9),
  ('C#Cc1c(F)ccc2cc(O)cc(-c3ncc4c(N5CC6CCC(C5)N6)nc(OCC56CCCN5CC(F)C6)nc4c3F)c12 (stereo not given) + Nc1ccc(C#CCN(C(=O)Cc2ncc(C(F)(F)F)cc2C(F)(F)F)c2ccc(F)cc2)nn1', '%', 98.1),
  ('COc1ccc([C@@H](O)c2cc(-c3ncnc4cc(N5CCOCC5)ccc34)c(F)cc2Cl)nn1 + Cc1cccc(N(C)C(=O)C2C(O)CCN2c2nc(C)cc(C(F)(F)F)c2C#N)c1', '%', 79.8),
  ('C=CC(=O)N1CCN(c2nc(=O)n(-c3c(C)ccnc3C(C)C)c3nc(-c4c(O)cccc4F)c(F)cc23)C(C)C1 (stereo not given) + COC1C(OC(N)=O)C(O)C(Oc2ccc3c(O)c(NC(=O)c4ccc(O)c(CC=C(C)C)c4)c(=O)oc3c2C)OC1(C)C', '%', 124),
  ('CCCS(=O)(=O)Nc1ccc(F)c(C(=O)c2c[nH]c3ncc(-c4ccc(Cl)cc4)cc23)c1F + COC1C(OC(N)=O)C(O)C(Oc2ccc3c(O)c(NC(=O)c4ccc(O)c(CC=C(C)C)c4)c(=O)oc3c2C)OC1(C)C', '%', 115),
  ('CC(C)n1c(=O)n(C)c2cnc3cc(F)c(-c4ccc(OCCCN5CCCCC5)nc4)cc3c21 + Cc1cccc(N(C)C(=O)C2C(O)CCN2c2nc(C)cc(C(F)(F)F)c2C#N)c1', '%', 87.9),
  ('CNCc1ccc(-c2[nH]c3cc(F)cc4c3c2CCNC4=O)cc1 + COC1C(OC(N)=O)C(O)C(Oc2ccc3c(O)c(NC(=O)c4ccc(O)c(CC=C(C)C)c4)c(=O)oc3c2C)OC1(C)C', '%', 106),
  ('CC1COCCN1c1cc(C2(O)CC3CCC(C2)O3)c2cnn(-c3ccn[nH]3)c2n1 (stereo not given) + COC1C(OC(N)=O)C(O)C(Oc2ccc3c(O)c(NC(=O)c4ccc(O)c(CC=C(C)C)c4)c(=O)oc3c2C)OC1(C)C', '%', 54.5),
  ('CCc1c2c(nc3ccc(O)cc13)-c1cc3c(c(=O)n1C2)COC(=O)[C@]3(O)CC + Cc1cccc(N(C)C(=O)C2C(O)CCN2c2nc(C)cc(C(F)(F)F)c2C#N)c1', '%', 34),
  ('COc1ccc([C@@H](O)c2cc(-c3ncnc4cc(N5CCOCC5)ccc34)c(F)cc2Cl)nn1 + COC1C(OC(N)=O)C(O)C(Oc2ccc3c(O)c(NC(=O)c4ccc(O)c(CC=C(C)C)c4)c(=O)oc3c2C)OC1(C)C', '%', 120);
